# Test system: UACC-62
# assay_procedure: NCI-60 screen (SRB)
# Format: cell-based, human
# test_parameters: UACC-62 (Melanoma), 10 µM, 48 h; negative = cell death vs time zero
quantity: percent cell growth (%)

- molecule: "Cl.O=C1NC(=NCCc2ccccc2)SC1=Cc1c[nH]c2ncccc12 (mixture of isomers) [DJ4-HCl]"
  recorded_measurement: "−1.3"
- molecule: "O=C1N/C(=N\\CCc2ccccc2)S/C1=C/c1c[nH]c2ncccc12"
  recorded_measurement: "−1.4"
- molecule: "C=CC/N=C1\\NC(=O)/C(=C\\c2c[nH]c3ncccc23)S1"
  recorded_measurement: 9.8
- molecule: "CC/N=C1\\NC(=O)/C(=C\\c2c[nH]c3ncccc23)S1"
  recorded_measurement: "−16.0"
